Quick list: GI50 per entry.
# Test system: CAKI-1 renal
# method notes: NCI tumour cell line growth inhibition, 48 h
measure name: GI50

> print(dat)
                         chemical.structure  measure.name  measurement
1  C/C1=C\CC[C@@](C)(O)[C@@H]2C[C@H](CC/C(C)=C/CC1)C1(CC1)C(=O)O2          GI50      22.2 µM
2  COc1cccc(COc2cc(-n3cnc4ccccc43)sc2C(N)=O)c1          GI50      > 25 µM
3  O=[N+]([O-])c1ccc(-c2cc3c(Nc4ccc(Cl)c(C(F)(F)F)c4)ncnc3s2)cc1          GI50      2.22 µM

---

# System: SK-MEL-5 melanoma
# method notes: NCI tumour cell line growth inhibition, 48 h; in the data active = GI50 below about 0.43 µM; inactive = the rest
Outcome codes: active, inactive

> print(dat)
                                   molecule  assigned.class
1  N.N.N.N.N.O=S(=O)([O-])S(=O)(=O)[O-].[Co+3]        inactive
2  O=C1/C(=C/c2ccc([N+](=O)[O-])cc2)COc2ccc(O)cc21        inactive
3  CCNCCNc1cc(-c2ccc(C#N)cc2)c(C#N)c2nc3ccccc3n12        inactive
4  O=C(NCCN1CCNCC1)c1ccc(Nc2nc3ccccc3c3occc23)cc1        inactive
5  CC(=O)Oc1c(C)c(C)c2c(c1C)CCC(C)(CC(=O)OCCCCCCCCCCC[P+](c1ccccc1)(c1ccccc1)c1ccccc1)O2 (stereo unspecified)          active
6  c1ccc(-c2nc(N3CCCNCC3)c3nc(-c4ccccc4)oc3n2)cc1        inactive

---

# Test system: OVCAR-8 ovarian
# method notes: NCI tumour cell line growth inhibition, 48 h; in the data active = GI50 below about 0.43 µM; inactive = the rest
Classes used: true (1) (active), false (0) (inactive)

> print(dat)
                         chemical.structure  assigned.class
1  COc1ccc(-c2cnoc2-c2cc(OC)c3c(c2)OCCO3)cc1        true (1)
2  Cc1cc2c(cc1Cl)S/C(=C/C(=O)O)C(Nc1cccc3nsnc13)=NS2(=O)=O       false (0)
3  COc1ccc(-n2nc(C)c3c(Nc4ccc(NC(=O)Nc5ccc(Cl)c(C(F)(F)F)c5)cc4)ncnc32)cc1       false (0)
4  COC(=O)c1ccc2c(c1)C(=O)c1c-2n(CCCN=[N+]=[N-])c(=O)c2cc([N+](=O)[O-])ccc12       false (0)
5                    OCc1ccc(N2CCOCC2)cc1Cl       false (0)
6          CSc1ccc(N(C)c2nc(C)nc3c2CCC3)cc1        true (1)

---

Reported TGI values for a set of compounds
# Tested on: HCC-2998 colon
# method notes: NCI tumour cell line growth inhibition, 48 h
measure name: TGI

> print(dat)
                                   compound  measurement
1  Clc1ccc2c(c1)N(c1ncnc3ccc(-c4cnc5[nH]ncc5c4)cc13)CC2     > 100 µM
2  CCOC(=O)C1CCC(=O)N1C(=O)c1ccccc1Cl (stereo unspecified)     > 100 µM
3  c1ccc2c(c1)CCCC/C2=N/OCC1CO1 (stereo unspecified)     > 100 µM
4  COc1ccc([C@H]2C=[N+]([O-])O[C@H](OC3CCCC3)[C@@H]2OC(C)=O)cc1OC      72.8 µM
5  CC1OC(c2ccc3c(c2O)C(=O)C2=C(C3=O)C3(O)C(=O)CC(C)(O)CC3(O)C=C2)CC(O)C1O (stereo unspecified)      31.7 µM
6      O=C1c2cccc(O)c2C(=O)c2c(O)cc(CO)cc21     > 100 µM

---

# Tested on: KM12 colon
# method notes: NCI tumour cell line growth inhibition, 48 h; in the data active = GI50 below about 0.43 µM; inactive = the rest
Possible outcomes: active, inactive

> print(dat)
                                   compound  assigned.class
1  c1cnn2ncc(-c3ccnc(Nc4ccc5c(c4)OCCO5)n3)c2c1          active
2  Nc1cc(-c2ccc(Cl)cc2)nn1-c1nnc(/C=C/c2ccco2)c(=O)[nH]1        inactive
3  COc1cccc2c(=O)c3c(sc12)c(NCCCNCCO)nc1ccccc13        inactive
4  O=C(c1cccs1)C1NO[N+]([O-])=C1c1cccs1 (configuration not stated)        inactive
5  N.N.N.N.N.O=S(=O)([O-])S(=O)(=O)[O-].[Co+3]        inactive
6  COc1ccc(-n2nc(C)c3c(Nc4ccc(NC(=O)Nc5ccc(Cl)c(C(F)(F)F)c5)cc4)ncnc32)cc1        inactive
7  C/C1=C\CC[C@@](C)(O)[C@@H]2C[C@H](CC/C(C)=C/CC1)C1(CC1)C(=O)O2        inactive

---

Consider the following compounds and their measured TGI readings.
# Test system: SNB-19 CNS
# method notes: NCI tumour cell line growth inhibition, 48 h
measure name: TGI

> print(dat)
                                    compound  measurement
 1       Clc1ccc(/C(=C\c2ccccc2)Cn2ccnc2)cc1      49.4 µM
 2  CCNCCNc1cc(-c2ccc(C#N)cc2)c(C#N)c2nc3ccccc3n12      17.4 µM
 3  Cc1ccc(NC(=O)/C(Cc2nc3ccc([N+](=O)[O-])cc3[nH]c2=O)=N\NC(=O)C[n+]2ccccc2)c(C)c1     > 100 µM
 4  N#Cc1c(-c2ccccc2)c2c([nH]c1=O)-c1cc([N+](=O)[O-])ccc1CCC2     > 100 µM
 5  COC(=O)c1ccc2c(c1)C(=O)c1c-2n(CCCN=[N+]=[N-])c(=O)c2cc([N+](=O)[O-])ccc12     > 100 µM
 6  N#C/C(=C1\SC(N=Nc2ccc(Cl)cc2)C(=O)N1c1ccccc1)c1nc2ccccc2[nH]1 (stereo unspecified)      89.6 µM
 7  O=C(Cl)C1=C(c2ccccc2)C1c1ccccc1 (stereo unspecified)     > 100 µM
 8  C(=C\c1ccccc1)/COc1ccccc1C(N1CCOCC1)n1nc2ccccc2n1 (stereo unspecified)    > 63.1 µM
 9  C[C@]12C/C(=C/O)C(=O)C(O)=C1CC[C@@H]1C2CC[C@@]2(C)C1CC[C@@H]2O (stereo partly specified)      36.1 µM
10  COc1ccc(C2=C(N3CCc4ccccc43)C(=O)NC2=O)cc1      > 25 µM
11  Nc1cc(-c2ccc(Cl)cc2)nn1-c1nnc(/C=C/c2ccco2)c(=O)[nH]1    > 83.3 µM
12  Cc1ccc(C)c(N2C(=O)C(=O)C(c3nc4ccccc4s3)C(=Nc3cccc4c(=O)[nH][nH]c(=O)c34)C2=O)c1 (stereo unspecified)     > 100 µM
13  COc1ccc(Nc2nccc(N3CCN(c4c5ccc(Cl)cc5nc5ccc(OC)cc45)CC3)n2)cc1     > 100 µM
14  CCOC(=O)c1c(SCCN2CCOCC2)n(-c2ccccc2)c(=S)n(-c2ccccc2)c1=O     > 100 µM
15  COc1ccc(C2c3cc4c(cc3OC(NCCO)C2C)OCO4)cc1 (stereo unspecified)     > 100 µM
16  COc1ccc(-c2cnoc2-c2cc(OC)c3c(c2)OCCO3)cc1     > 100 µM

---

# Test system: HL-60(TB) leukemia
# method notes: NCI tumour cell line growth inhibition, 48 h
The following compounds are shown together with reported TGI values.
measure name: TGI

> print(dat)
                                    compound  measurement
 1  C=CCNC(=O)N(CCC)CCCC(NC(C)=O)C(=O)NCc1ccccc1 (stereo not given)     > 100 µM
 2    Cc1cccc(N(CC(=O)O)S(=O)(=O)c2ccccc2)c1     > 100 µM
 3  CC1c2ccccc2N=C2SC(=S)N3CCN=C3N21 (stereo not given)     > 100 µM
 4  O=[N+]([O-])c1cccc2c(N=Nc3ccc4ccccc4c3O)c(O)cc(S(=O)(=O)O)c12      91.5 µM
 5  N#C/C(=C1\SC(N=Nc2ccc(Cl)cc2)C(=O)N1c1ccccc1)c1nc2ccccc2[nH]1 (stereo not given)     > 100 µM
 6                    O=c1c2ccccc2sc2ccccc12     > 100 µM
 7  COc1cc(CNc2nc3ccc(C(F)(F)F)cc3nc2-c2ccccc2)cc(OC)c1OC      55.9 µM
 8  Cc1cccc(C)c1N1C(=O)C(=O)C(c2nc3ccccc3s2)C(=Nc2cccc3c(=O)[nH][nH]c(=O)c23)C1=O (stereo not given)     > 100 µM
 9  O=C1OC(c2ccccc2)N(C(=O)c2ccccc2)C1Cc1ccc(OCc2ccccc2)cc1 (stereo not given)     > 100 µM
10  N.N.N.N.N.O=S(=O)([O-])S(=O)(=O)[O-].[Co+3]     > 100 µM
